IC50 by entry:
systemUnderTest: NMDAR1C - NMDAR2A (Rattus norvegicus, UniProt P35439+Q00959)
Construct: expressed in transfected cells; host or cells: Xenopus laevis oocytes injected with in vitro transcribed mRNA (1:1 mixture)
Sequence (Q00959 23-1464, other chains not shown): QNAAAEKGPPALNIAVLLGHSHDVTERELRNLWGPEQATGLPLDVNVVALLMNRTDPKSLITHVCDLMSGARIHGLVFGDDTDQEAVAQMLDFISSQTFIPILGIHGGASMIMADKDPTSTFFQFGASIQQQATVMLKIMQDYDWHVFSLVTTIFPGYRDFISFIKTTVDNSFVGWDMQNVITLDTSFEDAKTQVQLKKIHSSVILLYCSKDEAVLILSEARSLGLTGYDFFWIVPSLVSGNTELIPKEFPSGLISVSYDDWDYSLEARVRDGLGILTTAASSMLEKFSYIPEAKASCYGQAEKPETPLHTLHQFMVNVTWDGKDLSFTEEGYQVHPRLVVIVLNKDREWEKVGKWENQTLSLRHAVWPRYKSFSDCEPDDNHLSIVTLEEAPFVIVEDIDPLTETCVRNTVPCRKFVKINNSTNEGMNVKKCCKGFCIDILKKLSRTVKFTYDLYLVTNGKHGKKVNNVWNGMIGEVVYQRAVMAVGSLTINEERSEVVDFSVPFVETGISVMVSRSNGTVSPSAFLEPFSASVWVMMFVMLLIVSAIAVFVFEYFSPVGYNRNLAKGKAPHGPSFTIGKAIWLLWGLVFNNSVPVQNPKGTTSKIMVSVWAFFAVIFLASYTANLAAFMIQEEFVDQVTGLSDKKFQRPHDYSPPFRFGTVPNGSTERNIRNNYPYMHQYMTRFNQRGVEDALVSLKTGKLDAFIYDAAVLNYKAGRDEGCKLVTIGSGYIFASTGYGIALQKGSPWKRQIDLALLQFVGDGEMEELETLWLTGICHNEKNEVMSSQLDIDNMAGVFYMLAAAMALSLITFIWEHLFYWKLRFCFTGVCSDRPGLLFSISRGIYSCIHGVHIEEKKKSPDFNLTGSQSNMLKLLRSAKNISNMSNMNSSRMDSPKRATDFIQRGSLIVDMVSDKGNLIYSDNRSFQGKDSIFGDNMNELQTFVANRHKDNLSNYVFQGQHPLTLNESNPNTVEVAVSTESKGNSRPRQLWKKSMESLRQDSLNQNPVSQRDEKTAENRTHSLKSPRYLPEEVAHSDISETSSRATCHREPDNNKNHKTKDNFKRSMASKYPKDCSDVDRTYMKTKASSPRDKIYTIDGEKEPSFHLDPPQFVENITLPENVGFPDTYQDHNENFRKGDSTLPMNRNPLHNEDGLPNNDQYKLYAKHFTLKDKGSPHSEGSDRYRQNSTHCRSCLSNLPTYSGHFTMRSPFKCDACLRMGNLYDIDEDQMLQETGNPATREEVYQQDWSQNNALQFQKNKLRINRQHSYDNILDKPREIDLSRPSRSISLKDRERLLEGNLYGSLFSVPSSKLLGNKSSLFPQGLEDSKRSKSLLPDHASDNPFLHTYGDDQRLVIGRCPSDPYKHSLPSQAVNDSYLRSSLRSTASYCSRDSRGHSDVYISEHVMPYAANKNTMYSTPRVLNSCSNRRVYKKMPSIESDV
assayProtocol: Electrophysiology on recombinant NMDA receptors expressed in oocytes
Format: cell-based
assayContext: Xenopus laevis oocytes, voltage clamp -80 mV; 70 µM Asp plus 2.5 µM Gly; read-out: Electrophysiology/IC50 (µM) oocytes NMDAR 1C & 2A
Output spec: scalar in µM, unitless text.

CN1CCc2cc(O)c(O)cc2C1CCc1ccc(Cl)cc1 (centres unmarked)
19

# input compound: COc1cc2c(cc1OC)C(CC(OC(C)=O)c1ccc(Cl)cc1)N(C)CC2 (centres unmarked) ; wanted: its IC50 21
